- Tested on: Rattus norvegicus
- method-summary: Antiinflammatory activity in albino rat assessed as inhibition of carrageenan-induced paw edema at 0.029 mmol/kg, po after 4 hrs relative to control
- Assay type: functional
# label = bin(measured inhibition in vivo at 29 µmol/kg), where bins are c1: < 10%; c2: ≥ 10% and < 20%; c3: ≥ 20%

compound=N#Cc1c2n(c(=O)n(-c3ccccc3)/c1=N/c1cccc(C(F)(F)F)c1)CCC2 measurement_target="Rattus norvegicus" assigned_label=c1
compound=COc1ccc2c(c1)c(CC(=O)O)c(C)n2C(=O)c1ccc(Cl)cc1 measurement_target="Rattus norvegicus" assigned_label=c3
compound="CCO/C=N/C1=C(C#N)C2CCCN2C(=O)N1c1ccccc1 (stereo not drawn)" measurement_target="Rattus norvegicus" assigned_label=c1
compound="Cc1ccc(S(=O)(=O)NNc2nc(-c3ccccc3)nc3c2C2CCCN2C(=O)N3c2ccccc2)cc1 (stereo not drawn)" measurement_target="Rattus norvegicus" assigned_label=c3
compound="O=C1CN=C2C3=C(N=C(c4ccccc4)N12)N(c1ccccc1)C(=O)N1CCCC31 (stereo not drawn)" measurement_target="Rattus norvegicus" assigned_label=c3
compound=C/N=c1/c(C#N)c2n(c(=O)n1-c1ccccc1)CCC2 measurement_target="Rattus norvegicus" assigned_label=c3
compound="COc1ccc(C2NC(=O)C3=C(N2)N(c2ccccc2)C(=O)N2CCCC32)cc1 (stereo not drawn)" measurement_target="Rattus norvegicus" assigned_label=c2
compound="O=C1NC(c2ccc([N+](=O)[O-])cc2)NC2=C1C1CCCN1C(=O)N2c1ccccc1 (stereo not drawn)" measurement_target="Rattus norvegicus" assigned_label=c2
compound="N#Cc1cnn(-c2nc(-c3ccccc3)nc3c2C2CCCN2C(=O)N3c2ccccc2)c1N (stereo not drawn)" measurement_target="Rattus norvegicus" assigned_label=c1
compound="O=C1CN2C(=NN1)C1=C(N=C2c2ccccc2)N(c2ccccc2)C(=O)N2CCCC12 (stereo not drawn)" measurement_target="Rattus norvegicus" assigned_label=c3
compound="CCN1C(=S)N2CCCC2C2=C1NC(c1ccc(OC)cc1)NC2=O (stereo not drawn)" measurement_target="Rattus norvegicus" assigned_label=c2
compound="O=C1N(c2ccccc2)c2nc(-c3ccccc3)nc(N3CCOCC3)c2C2CCCN12 (stereo not drawn)" measurement_target="Rattus norvegicus" assigned_label=c2
